# System: bacterial inoculum
# Assay comment: Thermal stability: in vitro lytic assay after 30 min heating
# Assay type: cell-based
# Stated conditions: 30 minutes at 37° C.; another experiment
Reported % of CF-301 wild-type, 37° C. is given for each of the following molecules.
The answer should read as a number with its unit following.

Past entries and their recorded results:
Input: Output % of CF-301 wild-type, 37° C. of pp55: Modified PlySs2 lysin, SEQ ID NO: 3: L92W, V104S, V128T, Y137S; extra C-terminal lysine (+246K) (protein) MTTVNEALNNVRAQVGSGVSVGNGECYALASWYERMISPDATVGLGAGVGWVSGAIGDTISAKNIGSSYNWQANGWTVSTSGPFKAGQIVTWGATPGNPYGHVSIVEAVDGDRLTILEQNYGGKRYPTRNYYSAASSRQQVVHYITPPGTVAQSAPNLAGSRSYRETGTMTVTVDALNVRRAPNTSGEIVAVYKRGESFDYDTVIIDVNGYVWVSYIGGSGKRNYVATGATKDGKRFGNAWGTFK
Output: 122.1%

Input: Return reported % of CF-301 wild-type, 37° C.. Input molecule: pp65: Modified PlySs2 lysin, SEQ ID NO: 5: L92W, V104S, V128T, Y137S, S198Q, V204A, V212A; +246K (protein) MTTVNEALNNVRAQVGSGVSVGNGECYALASWYERMISPDATVGLGAGVGWVSGAIGDTISAKNIGSSYNWQANGWTVSTSGPFKAGQIVTWGATPGNPYGHVSIVEAVDGDRLTILEQNYGGKRYPTRNYYSAASSRQQVVHYITPPGTVAQSAPNLAGSRSYRETGTMTVTVDALNVRRAPNTSGEIVAVYKRGEQFDYDTAIIDVNGYAWVSYIGGSGKRNYVATGATKDGKRFGNAWGTFK
Output: 219.9%

Pending molecule:
Input: Give me measured % of CF-301 wild-type, 37° C., please, for this molecule: pp296: Modified PlySs2 lysin, SEQ ID NO: 6: L92W, V104S, V128T, Y137S, Y164K, N184D, S198Q (protein) MTTVNEALNNVRAQVGSGVSVGNGECYALASWYERMISPDATVGLGAGVGWVSGAIGDTISAKNIGSSYNWQANGWTVSTSGPFKAGQIVTWGATPGNPYGHVSIVEAVDGDRLTILEQNYGGKRYPTRNYYSAASSRQQVVHYITPPGTVAQSAPNLAGSRSKRETGTMTVTVDALNVRRAPDTSGEIVAVYKRGEQFDYDTAIIDVNGYAWVSYIGGSGKRNYVATGATKDGKRFGNAWGTFK
Output: 204.6%
